- assay-target: Torsin-1A-interacting protein 1 (Homo sapiens) (UniProt Q5JTV8)
- Sequence (Q5JTV8 whole entry, looked up): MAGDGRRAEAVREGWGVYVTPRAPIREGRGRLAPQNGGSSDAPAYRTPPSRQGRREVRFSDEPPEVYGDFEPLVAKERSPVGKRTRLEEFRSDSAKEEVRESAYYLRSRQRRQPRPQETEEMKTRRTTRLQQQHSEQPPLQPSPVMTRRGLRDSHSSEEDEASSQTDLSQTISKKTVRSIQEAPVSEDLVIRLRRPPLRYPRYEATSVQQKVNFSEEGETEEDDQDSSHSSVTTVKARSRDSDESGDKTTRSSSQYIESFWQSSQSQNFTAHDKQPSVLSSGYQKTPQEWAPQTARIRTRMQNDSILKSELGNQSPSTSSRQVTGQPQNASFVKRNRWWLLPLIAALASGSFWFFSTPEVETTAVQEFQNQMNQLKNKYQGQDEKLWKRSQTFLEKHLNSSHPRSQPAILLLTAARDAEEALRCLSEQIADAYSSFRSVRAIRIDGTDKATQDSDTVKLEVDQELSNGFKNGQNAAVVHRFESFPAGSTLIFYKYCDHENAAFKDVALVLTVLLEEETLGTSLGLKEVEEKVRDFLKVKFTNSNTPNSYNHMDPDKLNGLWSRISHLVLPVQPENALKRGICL
- assay-summary: compound microarray binding of lysate hLAP1 – cell lysate, small-molecule microarray, COS7 lysate, 635/667 nm fluorescence, primary screen (AID 1116)
- condition-notes: 635 nm fluorescence, higher = more signal

# compound, composite z-score
measured = [
    ("COC(=O)[C@@]1(Cc2ccc(F)cc2)[C@H]2c3cc(C(=O)N4CCCC4)n(CCc4ccc(OC)c(Br)c4)c3C[C@H]2CN1C(=O)c1ccccc1", 2.7),
    ("CCN(CC)c1ccc(N2CC=CC34O[C@@H]5C=CCOC(=O)[C@@H]5[C@H]3C(=O)N(CCCCCO)[C@@H]4C2=O)cc1 (stereo partly specified)", 0.975),
    ("COCC1=C([C@H](O)CCc2ccccc2)[C@H](CO)[C@@H]2C(=O)N(Cc3ccccc3)C(=O)[C@@H]2C1", 0.167),
    ("Cc1ccc(C(C)CC(O)C2C=CC3C(=O)NC(=O)C3N2Nc2ccccn2)o1 (stereo unspecified)", 0.773),
    ("CCCNC(=O)[C@@]1(C)c2ccccc2C(=O)N(Cc2cc(C(F)(F)F)cc(C(F)(F)F)c2)[C@H]1c1ccc(CO)cc1", 1.61),
    ("C=CC[C@@]1(C(=O)NCc2ccccc2)N=C(c2ccc(OCCCO)cc2)O[C@@H]1c1ccccc1CN=[N+]=[N-]", 1.1),
    ("C=C(CCCC)C(=O)CC[C@H](OC(C)=O)c1ccc(CO)o1", 1.43),
    ("C=C[C@H](C)[C@H](O)c1ccc(OCCO)cc1", -1.26),
    ("CO[C@H]1O[C@H](CO)[C@@H](OC(=O)Nc2ccc(C(F)(F)F)cc2)[C@H](OC(=O)Nc2ccccc2)[C@@H]1OC(=O)Nc1ccccc1", 1.01),
    ("Cc1ccc(S[C@]2(C(=O)NCCCN(C)C)CC(=O)N(Cc3ccccc3)[C@@H]2c2ccc(CO)cc2)cc1", 1.17),
    ("COC(=O)[C@@]1(Cc2ccc(F)cc2)[C@H]2c3cc(C(=O)N(C)C)n(Cc4ccccn4)c3C[C@H]2CN1C(=O)c1ccccc1", 1.11),
    ("O=c1cccc(-c2ccccc2)o1", -0.0971),
    ("COc1ccc([Si](C)(C)[C@@H]2[C@@H](CCO)O[C@]3(C(=O)N(Cc4ccc(N5C(=O)c6cccc7cccc5c67)cc4)c4ccccc43)[C@H]2C)cc1", -0.164),
    ("[N-]=[N+]=NCc1ccccc1[C@@H]1OC(c2ccc(OCCCO)cc2)=N[C@]1(Cc1ccccc1N=[N+]=[N-])C(N)=O", 0.804),
    ("O=C1NC(=O)C2C1C=CC(C(O)c1cccs1)N2Nc1ccccn1 (stereo unspecified)", 1.32),
    ("COC(=O)c1nc2oc1CC[C@@H](CO)NC(=O)N(C)Cc1cn(nn1)C[C@H](Cc1ccccc1)NC2=O", 0.481),
    ("CN1C(=O)C2C=CC(C(O)C=Cc3ccc([N+](=O)[O-])cc3)N(N3CCCCC3)C2C1=O (stereo unspecified)", 0.856),
    ("CC(c1ccccc1)C(O)C1C=CC2C(=O)N(Cc3ccccc3)C(=O)C2N1n1cnnc1 (stereo unspecified)", 0.0111),
    ("CC(c1ccccc1)C(O)C1C=CC2C(=O)N(c3ccccc3)C(=O)C2N1Nc1ccccc1F (stereo unspecified)", 1.03),
    ("CCCCN1CC=CC23O[C@@H]4C=CCCOC(=O)C4[C@H]2C(=O)N(CCCO)[C@@H]3C1=O (stereo partly specified)", -0.643),
    ("C=C(/C(=C/C[C@@H](OC(=O)c1ccncc1)c1ccc(CO)o1)c1cc(C(=O)OC)ccc1OC)C(C)C", 0.815),
    ("NC(=O)[C@]1(Cc2ccccc2)N=C(c2ccc(OCCCO)cc2)O[C@@H]1c1ccccc1", 1.51),
    ("COCCOC(=O)N1C(=O)[C@@]2(c3cc(C#CCCO)ccc31)[C@H](C(=O)NC[C@H](O)c1ccccc1)[C@H]1C(=O)O[C@H](c3ccccc3)[C@H](c3ccccc3)N1[C@@H]2c1ccc(OCCO)cc1", 0.274),
    ("Cn1c2c(c3ccccc31)C(=O)C1NC2C=CC1(C)C(=O)OCc1ccccc1 (stereo unspecified)", 1.38),
    ("C=C(/C(=C/C[C@@H](OC(C)=O)c1ccc(CO)o1)c1cnc2ccccc2c1)C(C)C", 1.24),
    ("COC(=O)[C@@]1(Cc2ccc(OC)cc2)[C@H]2c3cc(C(=O)N4CCCC4)n(C[C@H](O)CO)c3C[C@H]2CN1C(=O)c1ccccc1", 0.707),
    ("C=CCOC(=O)[C@@H]1[C@H]2C(=O)O[C@H](c3ccccc3)[C@H](c3ccccc3)N2[C@H](c2ccc(OCCOC(=O)[C@H]3C[C@H]4C(=O)N[C@@H](Cc5ccccc5)C(=O)N4[C@H]3c3ccc(O)cc3)cc2)[C@@]12C(=O)Nc1ccc(I)cc12", 1.03),
    ("C/C=C/[C@H](CCn1cc([C@H](O)c2ccccc2)nn1)[Si](C)(C)c1ccc(OC)cc1", -0.66),
    ("CC(C)CNC(=O)[C@@]1(C)c2ccccc2C(=O)N(C(C)C)[C@H]1c1ccc(CO)cc1", -0.181),
    ("CCCCC(=O)N(Cc1ccccc1F)[C@@H]1CC(C(=O)NCCO)=C[C@H](Oc2c(I)cc(CO)cc2OC)[C@H]1O", 0.994),
    ("O=C1OCCC/C=C\\[C@H]2OC34C=CCN(CCN5CCOCC5)C(=O)[C@H]3N(CCO)C(=O)[C@@H]4C12 (stereo partly specified)", -0.0137),
]

###

- assay-summary: forskolin-driven CRE-LacZ activity in PC12 – cell-based, CRE-LacZ reporter, forskolin-stimulated, primary screen (AID 1146);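 also: PC12 cells with 6xCRE LacZ reporter stimulated by forskolin 10 µM; beta-galactosidase reporter signal reflecting CREB driven transcription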
- condition-notes: luminescence, 4.5 h, higher = more signal, called active from +8 up or from −8 down
Grouping rule (z-score): c1 (below -0.4), c2 (-0.4 to below 0.3), c3 (0.3 or more)

# compound, group
data = [
    ("O=C(CS)NCCCCCCNC(=O)[C@H]1C[C@H]2C(=O)N3CCC[C@H]3C(=O)N2[C@H]1c1ccc(O)cc1", "c3"),
    ("O=C1C2C=CC(C(O)c3cccc4ccccc34)N(n3cnnc3)C2C(=O)N1Cc1ccccc1 (stereo not given)", "c3"),
    ("COC(=O)c1c2oc(c1C(=O)OC)C(=O)N[C@H](Cc1ccccc1)Cn1nncc1C1(CCCCC1)NC(=O)N[C@H](CO)CC2", "c2"),
    ("CC(C)C(CO)N1C(=O)[C@@H]2[C@H]3C(=O)OCC=C[C@H]3OC23C=CCN(c2ccc4ccccc4c2)C(=O)[C@@H]13 (stereo not given in full)", "c3"),
    ("CCCCN1CC=CC23O[C@@H]4/C=C\\CCCOC(=O)C4[C@H]2C(=O)N(C(C)CO)[C@@H]3C1=O (stereo not given in full)", "c1"),
    ("Cc1cc(C)c(C(O)C2C=CC3C(=O)NC(=O)C3N2Nc2ccccn2)c(C)c1 (stereo not given)", "c2"),
    ("O=C1C[C@@](C(=O)O)(c2ccc([N+](=O)[O-])cc2)[C@@H](c2ccc(CO)cc2I)N1C1CCCCC1", "c1"),
    ("COC(=O)c1nc2oc1CC[C@@H](CO)NC(=O)N(C)Cc1cn(nn1)C[C@H](Cc1ccccc1)NC2=O", "c3"),
    ("C/C=C/[C@H](CCn1cc([C@H](O)c2ccccc2)nn1)[Si](C)(C)c1ccc(OC)cc1", "c2"),
    ("CO[C@H]1O[C@H](CO)[C@@H](OC(=O)Nc2ccccc2-c2ccccc2)[C@H](OC(=O)Nc2ccccc2-c2ccccc2)[C@H]1OC(=O)Nc1ccccc1-c1ccccc1", "c1"),
    ("C=CCN1C(=O)[C@]2(Cc3ccccc31)N=C(c1ccc(OCCCO)cc1)O[C@@H]2c1ccccc1", "c1"),
    ("CC(C)N1C(=O)c2ccccc2[C@](C)(C(=O)NC2CC2)[C@@H]1c1ccc(CO)cc1", "c3"),
    ("CN1C(=O)C2C=CC(C(O)c3ccc(Br)cc3)N(Nc3ccccc3)C2C1=O (stereo not given)", "c2"),
    ("O=C1c2ccccc2[C@@]2(Cc3ccccc3N(Cc3ccccc3)C2=O)[C@H](c2ccc(CO)cc2)N1Cc1ccccc1C(F)(F)F", "c2"),
    ("CCCCC(=O)N(Cc1ccccc1F)[C@@H]1CC(C(=O)NCCO)=C[C@H](Oc2c(I)cc(CO)cc2OC)[C@H]1O", "c3"),
    ("C[n+]1ccc2ccc(O)cc2c1", "c2"),
    ("O=S(=O)(NCCCO)c1ccc(Br)cc1", "c1"),
    ("COc1cc2c(cc1O)C(c1ccc(CN3CCCC3)cc1)N(Cc1sc3ccccc3c1Cl)CC2 (stereo not given)", "c3"),
    ("CC(C)NC(=O)[C@@]1(c2ccc([N+](=O)[O-])cc2)CC(=O)N(C(C)C)[C@@H]1c1ccc(CO)cc1", "c2"),
    ("C=CCC(OC(C)=O)[C@@H]1[C@@H](N(Cc2ccc(-c3cccc(C(F)(F)F)c3)o2)C(=O)c2ccc(C)cc2)c2cc(OCCCO)ccc2N1C(=O)c1ccc2ccccc2n1 (stereo not given in full)", "c2"),
    ("C=CCCN(CC#C[C@H]1Oc2ccccc2S(=O)(=O)N2CCC[C@@H]12)S(=O)(=O)c1ccc(C)cc1", "c3"),
    ("CC(=O)n1cc(C(O)C2C=CC3C(=O)N(c4ccccc4)C(=O)C3N2Nc2ccc(C#N)cc2)c2ccccc21 (stereo not given)", "c2"),
    ("O=C1C2C=CC(C(O)c3ccc(-c4ccccc4)s3)N(Nc3ccccc3F)C2C(=O)N1c1ccccc1 (stereo not given)", "c3"),
    ("COC(=O)[C@@]1(Cc2ccc(F)cc2)[C@H]2c3cc(C(=O)N4CCCC4)n(CCc4ccc(OC)c(Br)c4)c3C[C@H]2CN1C(=O)c1ccccc1", "c1"),
    ("C#C[C@H]1Oc2ccccc2S(=O)(=O)N2CCC[C@@H]12", "c3"),
    ("CCN(CC)c1ccc(N2CC=CC34O[C@@H]5C=CCCOC(=O)C5[C@H]3C(=O)N(CCCO)[C@@H]4C2=O)cc1 (stereo not given in full)", "c1"),
    ("C=CCOC(=O)[C@H]1[C@@H]2C(=O)O[C@@H](c3ccccc3)[C@@H](c3ccccc3)N2[C@@H](c2ccc(OCCOC(=O)[C@@H]3C[C@@H]4C(=O)NCC(=O)N4[C@@H]3c3ccc(O)cc3)cc2)[C@]12C(=O)Nc1ccc(I)cc12", "c1"),
    ("COCCOC(=O)N1C(=O)[C@@]2(c3cc(C#CCC(C(=O)OC)C(=O)OC)ccc31)[C@H](c1ccccc1OCCO)N1[C@H](c3ccccc3)[C@H](c3ccccc3)OC(=O)[C@H]1[C@@H]2C(=O)Nc1nc2ccccc2s1", "c1"),
    ("COc1ccc(C#Cc2ccc3c(c2)[C@]2(C(=O)N3)[C@H](c3ccc(OCCO)cc3)N3[C@H](c4ccccc4)[C@H](c4ccccc4)OC(=O)[C@H]3[C@@H]2C(=O)Nc2nc3ccccc3s2)cc1", "c2"),
    ("COc1ccc([Si](C)(C)[C@H]2[C@H](CC(=O)N3CCC[C@H]3CO)O[C@@]3(C(=O)N(Cc4cccc(N5CCC5=O)c4)c4ccccc43)[C@@H]2C)cc1", "c1"),
]
